Consider the following compounds; for each one, report its pEC50.
test system: Caco-2; assay: Cytotoxicity against human Caco-2 cells assessed as cell viability by XTT assay; assay type: functional, cell-based
pEC50 (log units): -log10 of the concentration in mol/L.

Consider CN(Cc1cnc2nc(N)nc(N)c2n1)c1ccc(C(=O)N[C@@H](CCC(=O)O)C(=O)O)cc1 [METHOTREXATE] . Its measured pEC50 is 5.96

Consider CN(Cc1cnc2nc(N)nc(N)c2n1)c1ccc(C(=O)N[C@H](CCC(=O)O)C(=O)N2CCC[C@@H]2C(=O)O)cc1 . Its measured pEC50 is 5.25

This collection of values is drawn from ChEMBL document CHEMBL1221286.
